experiment: chemical genetic growth profiling, strain panel (AID 1159580);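 also: tested at 20 µM; growth read once vehicle control cultures reached saturation at 30 °C; 1 = growth at the plate median or of vehicle wells; lower values mean less growth of the strain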; details: S. cerevisiae deletion strains, growth OD, locus YJL134W, strain LCB3, stronger effect = lower value
Out of some 5,500 compounds screened, about 2,000 (36%) were called active. Not shown: some 18% with an inconclusive outcome. The list shows a part of the results.
MEASURED_QUANTITY: normalized growth

Example results:
> print(dat)
                                   compound  measured.quantity            result
1  CC(=O)OC1CCC2(O)CC1(C)CCC1C2CC1(C)C (stereo not drawn)  normalized growth  0.974 (inactive)
2               CNC(=O)Oc1cccc2c1OC(C)(C)C2  normalized growth      1 (inactive)
3          O=C1c2cccc(O)c2C(=O)c2c(O)cccc21  normalized growth  0.951 (inactive)
4  C[N+]12CCC(CC1)C(OC(=O)C(O)(c1ccccc1)c1ccccc1)C2 (stereo not drawn)  normalized growth  0.994 (inactive)

// lookup normalized growth for `Cn1c(=O)[nH]c2nc[nH]c2c1=O`
1.01 (inactive)

Item: `CNC(C)(C)Cc1ccccc1`
1.01 (inactive)

Same again, this time with `O=C(O)CCC(=O)OC[C@@H](NC(=O)C(Cl)Cl)[C@H](O)c1ccc([N+](=O)[O-])cc1`
0.982 (inactive)

Do the same for `Cn1c(=O)c2c(ncn2CCCl)n(C)c1=O` please
1.01 (inactive)

Item: COc1ccccc1OCC(O)COC(N)=O (stereo not drawn)
0.99 (inactive)

Next: `O=C1C=CC(=O)c2c(O)cccc21`
0.984 (inactive)

Moving on to `O=C(CCc1ccc(O)cc1)c1c(O)cc(O)cc1O`
1.01 (inactive)

Follow-up item: `COc1ccc([C@@H](C)C(=O)c2ccc(O)cc2O)cc1`
0.989 (inactive)

----------
Entries and their normalized growth values follow.
assay: chemical genetic growth profiling, strain panel (AID 1159580);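 also: tested at 20 µM; growth read once vehicle control cultures reached saturation at 30 °C; 1 = growth at the plate median or of vehicle wells; lower values mean less growth of the strain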; conditions: S. cerevisiae deletion strains, growth OD, locus YAL026C, strain drs2, stronger effect = lower value
The campaign covered roughly 5,500 compounds. About 2,000 (36%) were called active. Inconclusive results (about 18%) are left out. The list shows a part of the results.
I'd appreciate a reply containing only the number, no unit.

Consider the reported normalized growth for these molecules:
MOLECULE	MEASURED_QUANTITY	NUMERIC_READOUT
COc1cc(O)c2c(c1)C(=O)c1cc(C)cc(O)c1C2=O	normalized growth	0.997
Cn1c(=O)c2c(ncn2C)n(C)c1=O	normalized growth	0.975
CC(C)N1C(=O)c2ccccc2NS1(=O)=O	normalized growth	0.976
Cn1c(=O)[nH]c2nc[nH]c2c1=O	normalized growth	1.01
CC1(C)CC23C(=O)CCC(O)C2(C)CCC13 (configuration not stated)	normalized growth	0.989
O=C1NS(=O)(=O)c2ccccc21	normalized growth	1.04

State the recorded normalized growth for this entry: `O=C(O)c1cc(=O)c2ccccc2[nH]1`
0.986

Follow-up entry: `O=C(CCc1ccc(O)cc1)c1c(O)cc(O)cc1O`
1

Now this one: `O=C1C=CC(=O)c2ccccc21`
0.0697

Cool, now `CNC(=O)N(C)c1nnc(C(C)(C)C)s1`
0.993

Follow-up item: CNC(C)[C@@H]1CC[C@@H](N)[C@@H](OC2[C@@H](N)C[C@@H](N)[C@H](OC3OC[C@](C)(O)[C@H](NC)[C@H]3O)[C@H]2O)O1 (some centres not stated)
0.997

Cool, now `COc1cc(O)ccc1C(C)=O`
1.02
